molecular target: Human pyruvate kinase R (PKR) (Homo sapiens); construct: Human pyruvate kinase R (PKR), residues 14-574; 6x-His (N, cleaved yes); 8x-Arg (N, cleaved yes); SUMO (N, cleaved yes); host or cells: E. coli; experiment: Biochemical assay for activation of pyruvate kinase R (Kinase-Glo luminescence, ATP generation); conditions: maximal activation level relative to the activation level achieved by AG-348 @ 10 μM
Sequence (P30613 14-574): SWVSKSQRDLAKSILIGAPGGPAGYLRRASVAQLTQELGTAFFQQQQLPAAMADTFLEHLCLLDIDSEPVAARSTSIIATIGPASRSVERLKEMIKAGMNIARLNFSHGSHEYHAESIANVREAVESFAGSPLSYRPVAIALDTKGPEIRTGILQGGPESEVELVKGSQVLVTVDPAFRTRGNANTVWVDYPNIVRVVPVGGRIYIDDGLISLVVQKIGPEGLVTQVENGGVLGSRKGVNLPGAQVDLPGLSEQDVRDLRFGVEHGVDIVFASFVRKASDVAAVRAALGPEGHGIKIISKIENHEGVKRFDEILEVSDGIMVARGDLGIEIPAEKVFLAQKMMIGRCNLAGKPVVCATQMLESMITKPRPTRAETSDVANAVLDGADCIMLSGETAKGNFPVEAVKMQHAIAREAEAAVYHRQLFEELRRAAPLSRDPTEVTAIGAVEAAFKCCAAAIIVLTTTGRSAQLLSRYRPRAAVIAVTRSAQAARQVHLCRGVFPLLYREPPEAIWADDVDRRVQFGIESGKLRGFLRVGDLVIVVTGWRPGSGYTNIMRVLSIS
So I've got a bunch of compounds here, and I need their PKR % activation values.
Quote the value and follow it with the unit of measurement.

Return reported PKR % activation; argument: C[C@@H](O)[C@@H](C(=O)N1Cc2cn(S(=O)(=O)c3ccc(OC(F)F)cc3)nc2C1)c1ccccc1Cl (single isomer, unassigned) [Compound 68]
179%

Could you tell me which PKR % activation is on file for C[C@@](CO)(C(=O)N1Cc2cn(S(=O)(=O)c3ccc4c(c3)OCCO4)nc2C1)c1ccccn1 (single isomer, unassigned) ?
46%

Which PKR % activation value belongs to C[C@@H](O)[C@H](C(=O)N1Cc2cn(S(=O)(=O)c3ccc(OC(F)F)cc3)nc2C1)c1ccccc1 [Compound 9] ?
131%

Looking for the measured PKR % activation of C[C@@H](O)[C@H](C(=O)N1Cc2cn(S(=O)(=O)c3ccc4cn[nH]c4c3)nc2C1)c1ccccc1 (single isomer, unassigned) , can you help?
115%

Item O=C([C@H](CO)c1ncccc1F)N1Cc2cn(S(=O)(=O)c3ccc(OC(F)F)cc3)nc2C1 (single isomer, unassigned) has what recorded PKR % activation?
132%

Name the reported PKR % activation value associated with the compound O=C(N1Cc2cn(S(=O)(=O)c3ccc4ncsc4c3)nc2C1)[C@@]1(c2ccccc2)CCCN1 (single isomer, unassigned)
48%

I have this compound here, O=C([C@@H](CO)c1ccccc1)N1Cc2cn(S(=O)(=O)c3ccc4c(c3)OCCO4)nc2C1 (single isomer, unassigned) , and I need its recorded PKR % activation.
44%

State the recorded PKR % activation for this entry: C[C@@H](O)[C@H](C(=O)N1Cc2cn(S(=O)(=O)c3ccc4c(c3)NCCO4)nc2C1)c1ccccc1 [Compound 23]
95%

Query: PKR % activation; subject: C[C@@H](O)[C@H](C(=O)N1Cc2cn(S(=O)(=O)c3ccc4c(c3)NCCO4)nc2C1)c1ccccc1 [Compound 24]
65%

# query: PKR % activation of entry O=C([C@@H](CO)c1ccccc1)N1Cc2cn(S(=O)(=O)c3ccc4c(c3)NCCO4)nc2C1 (single isomer, unassigned)
99%
